Tested on: mouse
method_notes: Inhibition of spontaneous motility, sedation, muscular relaxation, loss of grip on horizontal wire mesh in mice (Table III, b)
Type: in vivo
condition: po, dose at which an average of 50% of the mice display symptoms, read-out: b SD50 mg/kg oral
The threshold is 200 mg/kg. Values of ED50 beneath it are tagged Met; values meeting or exceeding it are tagged Not met.

molecule	group_label
CCCC(C)(COC(N)=O)COC(N)=O [Meprobamate, reference compound]	Not met
COc1cc2nc(CCN3CCN(c4ccccc4C)CC3)[nH]c(=O)c2cc1OC	Met
COc1cc2nc(CN3CCN(c4ccccc4OC)CC3)[nH]c(=O)c2cc1OC	Not met
COc1cc2nc(CCN3CCN(c4ccccc4)CC3)[nH]c(=O)c2cc1OC	Not met
COc1cc2nc(CCN3CCN(c4ccccc4OC)CC3)[nH]c(=O)c2cc1OC	Met
COc1cc2nc(CCN3CCN(c4cccc(Cl)c4)CC3)[nH]c(=O)c2cc1OC	Not met
COc1cc2nc(CCN3CCN(c4ccc(F)cc4)CC3)[nH]c(=O)c2cc1OC	Met
COc1cc2nc(CCN3CCN(c4ccccc4Cl)CC3)[nH]c(=O)c2cc1OC	Met
COc1cc2nc(CCN3CCN(c4ccccc4F)CC3)[nH]c(=O)c2cc1OC	Met
COc1cc2nc(CCN3CCN(c4ccc(C)cc4)CC3)[nH]c(=O)c2cc1OC	Met
COc1cc2nc(CCN3CCN(c4cccc(C)c4)CC3)[nH]c(=O)c2cc1OC	Met
CNC1=Nc2ccc(Cl)cc2C(c2ccccc2)=[N+]([O-])C1 [Chlordiazepoxide, chlorodiazepoxide, reference compound]	Met
